// note: pIC50 values for Receptor-type tyrosine-protein kinase FLT3 (Homo sapiens) were reported in different studies
pIC50: −log10 of the molar value.

Guide cases for pIC50, answers given:
CCc1nc2c(N)ncc(-c3ccc(N4CCC(N5CCN(C)CC5)C(C)C4)c(OC)c3)c2nc1NC1CCOCC1 (centres unmarked)    ≥ 8.00
COC[C@H](C)Nc1ncc2c(C(F)(F)F)ncc([C@H]3CC[C@H](O)CC3)c2n1    5.00 to 6.00
Nc1ccc(-c2cc3c(s2)Cc2c(-c4ccc(O)cc4)n[nH]c2-3)cn1    > 7.00

For each of the compounds below, note its pIC50.
1. C[C@@H](Nc1ncc2c(OC3CCNCC3)ncc([C@H]3CC[C@H](O)CC3)c2n1)c1ccccc1
2. Fc1ccc(Nc2ccc(-c3n[nH]c4c3Cc3sccc3-4)cc2)cc1
3. O=C1Nc2cc(NC(=O)c3cccn(-c4cccc(C(F)(F)F)c4)c3=O)ccc2/C1=C/c1ccc[nH]1
4. Cn1cc(-c2cc(Oc3ccc(NC(=O)N4CCC5(CCC(=O)C5)C4=O)nc3)ccn2)cn1 (centres unmarked)
5. CCCC(C)Nc1ncc2c(NC3CCN(C(=O)C(F)(F)F)CC3)ncc([C@H]3CC[C@H](O)CC3)c2n1 (some centres unmarked)

Solution:
1: 5.00 to 6.00; 2: 6.30 to 7.00; 3: 6.87; 4: < 5.00; 5: 6.00 to 7.00

---

Compiled notes: published pIC50 values involving Receptor-type tyrosine-protein kinase FLT3 (Homo sapiens).
pIC50: −log10 of the molar value.

The following compounds have reported results that may help.
CC(C)(C)c1cc(NC(=O)Nc2ccc(C#Cc3ccc(OCCCN4CCOCC4)cc3F)cc2)no1    7.41
Fc1cc2cc(c1)-c1ccnc(n1)Nc1ccc(OCCN3CCCC3)c(c1)COC/C=C/CCO2    ≥ 6.00
COc1cc2nccc(Oc3ccc(NC(=O)C4(C(=O)O)CC4)cc3)c2cc1OC    5.30 to 6.30
COc1ccc(-c2n[nH]c3c2Cc2sccc2-3)c(OC)c1    > 7.00
CCc1nc2c(N)ncc(-c3cnn(-c4ccc(C(C)(C)O)nn4)c3)c2nc1N[C@@H]1CC[C@H](O)C1    ≥ 8.00

I have 3 compounds here; please give me pIC50 for each one.
1. CCc1nc2c(N)ncc(-c3cnn(-c4ccnnc4)c3)c2nc1N[C@@H]1CC[C@H](O)C1
2. COC[C@H](C)Nc1ncc2c(-c3cnn(C(C)(C)c4nnc(C(C)C)o4)c3)cc([C@H]3CC[C@H](O)CC3)n2n1
3. CCc1nc2c(N)ncc(-c3cnn(C4CCN(C5CCOCC5)CC4)c3)c2nc1NC1CCOCC1

Solution:
≥ 8.00
5.00 to 6.00
≥ 8.00

---

Let's look at some IC50 data for Receptor-type tyrosine-protein kinase FLT3 (Homo sapiens, UniProt P36888) that I collected from the literature.

COc1ccc(C(=O)NC(=O)Nc2ccc3c(c2)NC(=O)/C3=C\c2ccc[nH]2)cc1    334 nM
CN1CCC[C@H]1c1cc2cnc(NC(=O)c3ccc(-c4cn[nH]c4)cn3)cc2[nH]1    13 nM
CCc1nc2c(N)ncc(-c3cnn(C4CCN(C)CC4)c3)c2nc1N[C@@H]1CC[C@H](O)C1    ≤ 10 nM

For each of the items listed, what is its IC50?
1. CCc1nc2c(N)ncc(-c3cccc(OC)c3)c2nc1NC1CCOCC1
2. COC[C@H](C)Nc1ncc2c(-c3ccnc(S(C)(=O)=O)c3)cc(C3CCC(O)CC3)n2n1 (some centres unmarked)
3. COCC(C)Nc1ncc2c(-c3ccc(C(C)N4CCOCC4)cc3)cc(C3CCC(O)CC3)n2n1 (mixture of isomers)
4. Cc1cnc(Nc2ccc(N3CCC(N(C)CCO)CC3)c(F)c2)nc1-c1cn(C(C)C)nc1S(C)(=O)=O
5. COC[C@H](C)Nc1ncc2c(-c3ccnc(N4CCOCC4)c3)cc([C@H]3CC[C@](C)(O)CC3)n2n1

Solution:
1. 10 to 100 nM
2. 1000 to 10000 nM
3. 100 to 1000 nM
4. 11 nM
5. 100 to 1000 nM

---

A compilation of pIC50 values for Receptor-type tyrosine-protein kinase FLT3 (Homo sapiens, UniProt P36888) from the published literature.
pIC50: −log10 of the molar value.

Guide cases for pIC50, answers given:
COC[C@H](C)Nc1ncc2c(-c3cnn(C4CC(C(=O)OC)C4)c3)cc([C@H]3CC[C@H](O)CC3)n2n1 (some centres unmarked)    6.00 to 7.00
COC[C@H](C)Nc1ncc2c(-c3ccnc(N4Cc5nc(C)sc5C4)c3)cc([C@H]3CC[C@H](O)CC3)n2n1    5.00 to 6.00
COC[C@H](C)Nc1ncc2c(-c3cnn(C(C)(C)C(=O)O)c3)cc([C@H]3CC[C@H](O)CC3)n2n1    5.00 to 6.00
CCOC(=O)c1c(C)[nH]c(/C=C2\C(=O)Nc3cc(NC(=O)NC(=O)c4ccc(OC)cc4F)ccc32)c1C    5.53
COc1cccc(C(=O)c2c[nH]c3ncc(-c4cccc(NC(C)=O)c4)cc23)c1F    ≥ 5.00

Hi team, please reply with pIC50 for each item in this list.
1. CC(C)(C)c1cc(NC(=O)Nc2ccc(C#Cc3ccc(OCCCN4CCC5(COC5)C4)cc3F)cc2)no1
2. COC[C@H](C)Nc1ncc2c([C@H]3CC[C@H](C(=O)N4CC5(COC5)C4)CC3)cc([C@H]3CC[C@H](O)CC3)n2n1
3. Nc1nc2ccccc2c2c(=O)c3cc(F)ccc3sc12
4. CNS(=O)(=O)c1ccc(-c2cc([C@H]3CC[C@H](O)CC3)n3nc(N[C@@H](C)CC(F)(F)F)ncc23)cn1
5. COc1cc(C2=C(c3cn(CCOC(=O)C(N)CC(C)C)c4ccccc34)C(=O)NC2=O)cc(OC)c1OC (centres unmarked)
6. COc1ccc(C(=O)NC(=O)Nc2ccc3c(c2)NC(=O)/C3=C\c2[nH]c(C)c(CCC(=O)N3CCOCC3)c2C)c(F)c1
7. Cc1cnc2cc(Nc3ncc(Cl)c(NC4CCN(c5ccc(C#N)nn5)CC4)n3)ccn12
8. C[C@@H](CC(F)F)Nc1ncc2c(-c3ccc(S(C)(=O)=O)nc3)cc([C@H]3CC[C@H](O)CC3)n2n1

Solution:
7.21
5.00 to 6.00
< 6.00
≥ 7.00
6.62
6.97
6.18
≥ 7.00

Hi, could you look up pIC50 for each item in my list?
1. C[C@@H](CC(F)(F)F)Nc1ncc2c(-c3cncc([S@](C)(=N)=O)c3)cc([C@H]3CC[C@H](O)CC3)n2n1
2. C[C@@H](CC(F)F)Nc1ncc2c(-c3cnn(C4COC4)c3)cc([C@H]3CC[C@H](O)CC3)n2n1
3. CCc1nc2c(N)ncc(-c3cnn(-c4nccc(C(C)(C)O)n4)c3)c2nc1N[C@@H]1CC[C@H](O)C1
4. CCCCNC(=O)Nc1ccc(F)c(C(=O)c2c[nH]c3ncc(-c4cccnc4)cc23)c1F
5. C[C@@H](CC(F)(F)F)Nc1ncc2c(-c3cnn(C(C)(C)C(=O)C4COC4)c3)cc([C@H]3CC[C@](C)(O)CC3)n2n1

Solution:
1: 5.00 to 6.00; 2: ≥ 7.00; 3: ≥ 8.00; 4: ≥ 5.00; 5: ≥ 7.00

Please supply pIC50 for each of the following items, keeping them in order.
1. CNc1nccc(Oc2ccc(NC(=O)Nc3ccc(CN(C)C)c(C(F)(F)F)c3)cc2)n1
2. COC[C@H](C)Nc1ncc2c(-c3ccnc([S@](C)(=N)=O)c3)cc([C@H]3CC[C@H](O)CC3)n2n1
3. CC(C)(C)c1cc(NC(=O)Nc2ccc(Oc3ncnc4[nH]ncc34)cc2)on1

Solution:
1: 6.24; 2: 5.00 to 6.00; 3: 7.80

Hello, I would appreciate it if you could give pIC50 for each entry below.
1. COC[C@H](C)Nc1ncc2c(OC3CC(C)(C)N(C)C(C)(C)C3)ncc([C@H]3CC[C@H](O)CC3)c2n1
2. CCc1nc2c(N)ncc(-c3ccc(N4CCC(N5CCN(C)CC5)CC4)c(C(F)(F)F)c3)c2nc1NC1CCOCC1
3. CCc1nc2c(N)ncc(-c3cnn(CC4CCNCC4)c3)c2nc1NC1CCOCC1

Solution:
1. 5.00 to 6.00
2. ≥ 8.00
3. ≥ 8.00

---

Record: compiled IC50 on Receptor-type tyrosine-protein kinase FLT3 (Homo sapiens) from multiple reports.

CN1C[C@H](Nc2ncc3c(OC4CCOCC4)ncc([C@H]4CC[C@H](O)CC4)c3n2)CC1=O    1000 to 10000 nM
Cc1cccc(C(=O)NC(=O)Nc2ccc3c(c2)NC(=O)/C3=C\c2[nH]c(C)c(CCC(=O)O)c2C)c1    6.1 nM
Fc1nc(NCc2ccc(C(F)(F)F)nc2)ccc1Cc1c[nH]c2ncncc12    ≤ 10000 nM

Consider the additional compound presented here.
Problem: Answer briefly: IC50 recorded on Receptor-type tyrosine-protein kinase FLT3 (Homo sapiens) for COC[C@H](C)Nc1ncc2c(O[C@H]3C[C@@H](C(=O)N4CCN(C)CC4)C3)ncc([C@H]3CC[C@H](O)CC3)c2n1
Solution: 1000 to 10000 nM
